src = patent US20250051338A1

Attribute: DC50
tested on: TYK2 (Homo sapiens)
assay details: TYK2 degradation MSD assay in EBV-B cells
Type: cell-based
Parameters: endogenous in cells; host or cells: EBV-B cells
measurement setup: 4 to 24 hours incubation, read-out: TYK2 MSD DC50 rating in EBV-B

| compound | reading |
| --- | --- |
| CNc1cc(Nc2cccn(-c3cc(C(=O)NCCCCCCc4ccc5c(c4)n(C)c(=O)n5C4CCC(=O)NC4=O)ccn3)c2=O)nn2c(C(=O)N[C@@H]3C[C@@H]3F)cnc12 (some centres unmarked) | > 100 nM |

Fill: DC50 (TYK2 (Homo sapiens)) for this compound CNc1cc(Nc2ccc(F)c(-c3ccc(Cc4ccc(-c5ccc6c(c5)n(C)c(=O)n6C5CCC(=O)NC5=O)cc4)cn3)c2OC)nn2c(C(=O)N[C@@H]3C[C@@H]3F)cnc12 (some centres unmarked)
> 100 nM

Fill: DC50 (TYK2 (Homo sapiens)) for this compound [2H]C([2H])([2H])NC(=O)c1nnc(Nc2ccc(C(=O)N(C)C3CCN(c4cccc5c4n(C)c(=O)n5C4CCC(=O)NC4=O)CC3)cn2)cc1Nc1cccc(F)c1OC (centres unmarked)
< 1 nM

Fill: DC50 (TYK2 (Homo sapiens)) for this compound CNc1cc(-c2cnn(C3CCN(C(=O)NCCCCc4ccc5c(c4)n(C)c(=O)n5C4CCC(=O)NC4=O)CC3)c2)nn2c(C(=O)N[C@@H]3C[C@@H]3F)cnc12 (some centres unmarked)
> 100 nM

----------
tested on: TYK2 (Homo sapiens)
assay details: TYK2 degradation MSD assay in EBV-B cells
Format: cell-based
Design: endogenous in cells; host or cells: EBV-B cells
measurement setup: 4 to 24 hours incubation, read-out: TYK2 MSD DC50 rating in EBV-B
Description: Example 3. TYK2 Degradation MSD Assay in EBV-B, OCI-LY10, and Human PBMC Cells Degradation of TYK2 in cells was quantitatively measured using Meso Scale Discovery (MSD) technology. […] The assay plates were then incubated at room temperature for 1 hour, washed 3 times with 150 μl/well TBST buffer, and 150 μl/well MSD reading buffer (MSD, R92TC-2) were added. The plates were then analyzed by an MSD reader. […]
Attribute: DC50

# count of solved cases: 2
| compound | observable | reading |
| --- | --- | --- |
| CNc1cc(Nc2cccc(CN3CCC(OC4CC(c5cccc6c5n(C)c(=O)n6C5CCC(=O)NC5=O)C4)CC3)c2)nn2c(C(=O)NC3CC3)cnc12 (stereo not drawn) [Example K590] | DC50 | > 100 nM |
| CNC(=O)c1cnc(Nc2ccc(C(=O)N(C)C3CCN(c4cccc5c4n(C)c(=O)n5C4CCC(=O)NC4=O)CC3)cn2)cc1Nc1ccccc1OC (stereo not drawn) [Example K195] | DC50 | 1 to 10 nM |

Let's switch to this compound now.
Identify measured DC50 corresponding to CNC(=O)c1cnc(Nc2ccc(CN(C)CC3CCN(c4ccc5c(c4)n(C)c(=O)n5C4CCC(=O)NC4=O)CC3)cn2)cc1Nc1cccc(-c2ncc(F)cn2)c1OC (stereo not drawn) [Example K135]
< 1 nM

----------
tested on: TYK2 (Homo sapiens, UniProt P29597)
Sequence (P29597 whole entry): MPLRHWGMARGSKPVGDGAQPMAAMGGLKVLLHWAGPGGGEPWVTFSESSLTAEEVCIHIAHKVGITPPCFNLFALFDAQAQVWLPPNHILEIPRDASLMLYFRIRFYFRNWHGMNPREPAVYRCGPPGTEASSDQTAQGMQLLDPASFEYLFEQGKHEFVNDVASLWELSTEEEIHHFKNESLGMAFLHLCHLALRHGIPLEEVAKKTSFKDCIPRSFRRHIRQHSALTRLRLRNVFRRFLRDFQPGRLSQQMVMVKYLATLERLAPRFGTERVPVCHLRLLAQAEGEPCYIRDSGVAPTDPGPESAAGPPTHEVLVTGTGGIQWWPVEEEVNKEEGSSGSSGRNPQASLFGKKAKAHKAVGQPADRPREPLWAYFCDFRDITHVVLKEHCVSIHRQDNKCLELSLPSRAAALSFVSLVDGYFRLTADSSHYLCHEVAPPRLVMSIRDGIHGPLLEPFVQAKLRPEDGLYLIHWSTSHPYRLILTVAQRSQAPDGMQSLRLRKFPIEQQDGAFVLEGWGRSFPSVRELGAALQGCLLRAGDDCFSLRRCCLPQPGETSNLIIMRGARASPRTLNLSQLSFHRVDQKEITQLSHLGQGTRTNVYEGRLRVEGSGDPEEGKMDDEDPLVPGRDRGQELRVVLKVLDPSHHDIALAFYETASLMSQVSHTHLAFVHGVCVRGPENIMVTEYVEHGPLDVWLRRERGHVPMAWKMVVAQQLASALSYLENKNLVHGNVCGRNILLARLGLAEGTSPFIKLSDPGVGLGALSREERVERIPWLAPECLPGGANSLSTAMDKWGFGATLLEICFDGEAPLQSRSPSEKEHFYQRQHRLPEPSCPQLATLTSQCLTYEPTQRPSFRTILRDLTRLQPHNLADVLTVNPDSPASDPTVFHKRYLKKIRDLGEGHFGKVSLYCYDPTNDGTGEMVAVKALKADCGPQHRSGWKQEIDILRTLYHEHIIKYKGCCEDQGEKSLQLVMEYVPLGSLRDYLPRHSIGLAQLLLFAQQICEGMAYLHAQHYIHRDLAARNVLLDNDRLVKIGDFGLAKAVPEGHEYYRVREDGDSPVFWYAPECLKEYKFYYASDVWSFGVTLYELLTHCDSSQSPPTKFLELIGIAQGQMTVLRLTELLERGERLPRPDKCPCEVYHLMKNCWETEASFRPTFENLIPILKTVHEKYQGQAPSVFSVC
assay details: TYK2 degradation MSD assay in OCI-LY10 cells
Assay type: cell-based
Parameters: endogenous in cells; host or cells: EBV-B cells
measurement setup: 4 to 24 hours incubation, read-out: TYK2 MSD DC50 rating in OCI-LY10
Attribute: DC50

| compound | DC50 |
| --- | --- |
| CNc1cc(Oc2ccn(C3CCN(CC4CCN(c5ccc(-c6ccc7c(c6)n(C)c(=O)n7C6CCC(=O)NC6=O)cc5)CC4)CC3)n2)nn2c(C(=O)N[C@@H]3C[C@@H]3F)cnc12 (stereo partly drawn) [Example K549] | > 100 nM |
| CNc1cc(Nc2cccn(-c3cccc(C(=O)NCCOCCOCCc4ccc5c(c4)n(C)c(=O)n5C4CCC(=O)NC4=O)c3)c2=O)nn2c(C(=O)N[C@@H]3C[C@@H]3F)cnc12 (stereo partly drawn) [Example K235] | > 100 nM |

Identify measured DC50 corresponding to CNc1cc(-c2cccc(C(=O)NCCCCCCc3ccc4c(c3)n(C)c(=O)n4C3CCC(=O)NC3=O)c2)nn2c(C(=O)N[C@@H]3C[C@@H]3F)cnc12 (stereo partly drawn) [Example K306]
> 100 nM
